# target of assay: T1, murine OX40 (murine, UniProt P47741 20-211, limits assumed)
# T1 sequence (looked up): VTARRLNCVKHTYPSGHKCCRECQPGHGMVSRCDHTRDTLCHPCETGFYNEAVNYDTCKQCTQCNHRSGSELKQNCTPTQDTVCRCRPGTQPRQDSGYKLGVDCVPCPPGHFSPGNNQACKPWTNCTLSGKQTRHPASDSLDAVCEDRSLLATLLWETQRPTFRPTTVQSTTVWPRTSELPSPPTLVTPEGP
# protocol text: ELISA
test readout: binding result

anti-OX40 antibody 1526/1527 (antibody, V domains shown, Tested as IgG) VH: EVQLLESGGGLVQPGGSLRLSCAASGFTFSGYSMYWVRQAPGKGLEWVSGIGYSGYGTYYADSVKGRFTISRDNSKNTLYLQMNSLRAEDTAVYYCARYYFHDYAAYSLDYWGQGTLVTVSS VL: DIQMTQSPSSLSASVGDRVTITCRASQSISSYLNWYQQKPGKAPKLLIYAASSLQSGVPSRFSGSGSGTDFTLTISSLQPEDFATYYCQQYGSDSLLTFGQGTKLEIK | no binding
anti-OX40 antibody 1514/1515 (antibody, V domains shown, Tested as IgG) VH: EVQLLESGGGLVQPGGSLRLSCAASGFTFGYYYMSWVRQAPGKGLEWVSGISSYGSYTYYADSVKGRFTISRDNSKNTLYLQMNSLRAEDTAVYYCARSGYSNWANSFDYWGQGTLVTVSS VL: DIQMTQSPSSLSASVGDRVTITCRASQSISSYLNWYQQKPGKAPKLLIYAASSLQSGVPSRFSGSGSGTDFTLTISSLQPEDFATYYCQQGDYTLFTFGQGTKLEIK | no binding
anti-OX40 antibody 1170/1171 (antibody, V domains shown, Tested as IgG) VH: EVQLLESGGGLVQPGGSLRLSCAASGFTFGGYYMSWVRQAPGKGLEWVSYIPGSGGSTYYADSVKGRFTISRDNSKNTLYLQMNSLRAEDTAVYYCARYDYYWMDYWGQGTLVTVSS VL: DIQMTQSPSSLSASVGDRVTITCRASQSISSYLNWYQQKPGKAPKLLIYAASSLQSGVPSRFSGSGSGTDFTLTISSLQPEDFATYYCQQGHGSYPHTFGQGTKLEIK | no binding

Data credit: patent US20210238298A1
